B1: CPEB3 Ribozyme (parent)
chain: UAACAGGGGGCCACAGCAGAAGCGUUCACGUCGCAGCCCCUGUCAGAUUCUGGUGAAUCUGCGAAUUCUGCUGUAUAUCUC

- Variants of: B1
- measurement.protocol: self-cleavage, relative activity (ratio to wild type); higher = more cleavage; in vitro, sequencing
Catalogue of self-cleavage values
measurement.type: self-cleavage

[[record]]
variant_key = "G16C U41C"
measurement_type = "self-cleavage"
assay_result = 0.42

[[record]]
variant_key = "A28G U60A"
measurement_type = "self-cleavage"
assay_result = 0.32

[[record]]
variant_key = "A18C U43C"
measurement_type = "self-cleavage"
assay_result = 0.21

[[record]]
variant_key = "U1C A35U"
measurement_type = "self-cleavage"
assay_result = 0.33

[[record]]
variant_key = "A3U U43C"
measurement_type = "self-cleavage"
assay_result = 0.77

[[record]]
variant_key = "C81U"
measurement_type = "self-cleavage"
assay_result = 1.18

[[record]]
variant_key = "G22A U41A"
measurement_type = "self-cleavage"
assay_result = 0.19

[[record]]
variant_key = "U51C U78C"
measurement_type = "self-cleavage"
assay_result = 0.99

[[record]]
variant_key = "U58C U80G"
measurement_type = "self-cleavage"
assay_result = 0.67

[[record]]
variant_key = "U26A C62U"
measurement_type = "self-cleavage"
assay_result = 0.21

[[record]]
variant_key = "G33C U67A"
measurement_type = "self-cleavage"
assay_result = 0.17

[[record]]
variant_key = "U67A U74G"
measurement_type = "self-cleavage"
assay_result = 0.81

[[record]]
variant_key = "U54A U69G"
measurement_type = "self-cleavage"
assay_result = 0.92

[[record]]
variant_key = "C32U G70A"
measurement_type = "self-cleavage"
assay_result = 0.21

[[record]]
variant_key = "C11U G33C"
measurement_type = "self-cleavage"
assay_result = 0.14

[[record]]
variant_key = "A75C"
measurement_type = "self-cleavage"
assay_result = 1.2

[[record]]
variant_key = "G55A U67C"
measurement_type = "self-cleavage"
assay_result = 0.22

[[record]]
variant_key = "A13U A45G"
measurement_type = "self-cleavage"
assay_result = 1.1

[[record]]
variant_key = "U69G U76A"
measurement_type = "self-cleavage"
assay_result = 0.94

[[record]]
variant_key = "A3G C23A"
measurement_type = "self-cleavage"
assay_result = 0.22

[[record]]
variant_key = "A47G U60G"
measurement_type = "self-cleavage"
assay_result = 0.41

[[record]]
variant_key = "C12U C79A"
measurement_type = "self-cleavage"
assay_result = 1.19

[[record]]
variant_key = "C34A A45G"
measurement_type = "self-cleavage"
assay_result = 0.37

[[record]]
variant_key = "A45G U76A"
measurement_type = "self-cleavage"
assay_result = 0.96

